Origin of values: paper PMC11111404

molecular target: apo(a) KIV5–8 (Homo sapiens); construct: made in house; assay: ITC binding to apo(a) KIV5–8
measurement_kind: Kd

>>> reading("Cl.Cl.O=C(Nc1cccc(C[C@H](C(=O)O)[C@H]2CCNC2)c1)Nc1cccc(C[C@H](C(=O)O)[C@H]2CCNC2)c1 [LSN3441732]")
"< 15 nM"

Next:
Problem: Recorded Kd of COc1cccc(N2CCN(c3cccc(C[C@H](C(=O)O)[C@H]4CCNC4)c3)C2=O)c1 [LSN3374443] , please.
Solution: < 15 nM

###

test: Pharmacokinetics in monkey plasma after oral dosing; type: in vivo; conditions: cynomolgus, oral 40 mg/kg, day 14
measurement_kind: Tmax (h)
Return type: number; implicit unit h.

Problem: Recorded Tmax of Cl.O=C(O)[C@@H](Cc1ccccc1)[C@H]1CCNC1 , please.
Solution: 1.5

###

Assay: Pharmacokinetics in monkey plasma after oral dosing
Type: in vivo
Conditions: cynomolgus, oral 100 mg/kg, day 15, read-out: AUC(0-96 hr)
Procedure: Plasma samples were collected from all monkeys before dosing and at four-hour time points only on days 1, 3, 5, 9 and 14. A full PK profile was obtained in the first three monkeys of each dose group on day 15, collecting samples before dosing and 1, 2, 4, 8, 12, 24, 48 and 96 h after dosing. Concentrations of compounds were evaluated in plasma samples using a non-GLP LC–MS/MS assay. The non-compartmental plasma PK parameters were calculated using Watson (v.7.5).
measurement_kind: AUC(0-t) (µM·h)
Return type: number; implicit unit µM·h.

Problem: Recorded AUC(0-t) of O=C(O)[C@@H](Cc1cccc(CN(Cc2cccc(C[C@H](C(=O)O)[C@H]3CCNC3)c2)Cc2cccc(C[C@H](C(=O)O)[C@H]3CCNC3)c2)c1)[C@H]1CCNC1 , please.
Solution: 294

###

Target: apo(a) KIV7–8 (Homo sapiens, UniProt P08519)
Construct: purified recombinant apo(a) KIV7–8 protein; made in house
Sequence (P08519 1263-1470 limits assumed): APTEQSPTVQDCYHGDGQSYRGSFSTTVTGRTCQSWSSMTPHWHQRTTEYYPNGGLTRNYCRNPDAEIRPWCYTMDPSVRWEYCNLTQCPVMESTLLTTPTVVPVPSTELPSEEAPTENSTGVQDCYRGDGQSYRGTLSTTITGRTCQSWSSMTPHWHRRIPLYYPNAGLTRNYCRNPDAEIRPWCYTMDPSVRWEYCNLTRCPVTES
Experiment: Radioligand binding to apo(a) KIV7–8
Settings: radioligand binding, Experiment 2; read-out: Kd (nM) KIV7–8 Exp 2
measurement_kind: Kd (nM)
Return type: number; implicit unit nM.

Problem: Recorded Kd of O=C(Nc1cccc(C[C@H](C(=O)O)[C@H]2CCNC2)c1)Nc1cccc(C[C@H](C(=O)O)[C@H]2CCNC2)c1 , please.
Solution: 0.1

###

experiment: Drug concentration in mouse blood after oral dosing; format: in vivo; conditions: female, whole blood (dried blood spots), oral 30 mg/kg, day 5, read-out: Drug concentration, 4-h time point
Item-by-item account of concentration at 4 h
Return type: number; implicit unit nM.

>>> reading("O=C(O)[C@@H](Cc1cccc(CN(Cc2cccc(C[C@H](C(=O)O)[C@H]3CCNC3)c2)Cc2cccc(C[C@H](C(=O)O)[C@H]3CCNC3)c2)c1)[C@H]1CCNC1")
264
>>> reading("Cl.O=C(O)[C@@H](Cc1ccccc1)[C@H]1CCNC1")
28000

Next:
Problem: Recorded concentration at 4 h of Cl.Cl.O=C(Nc1cccc(C[C@H](C(=O)O)[C@H]2CCNC2)c1)Nc1cccc(C[C@H](C(=O)O)[C@H]2CCNC2)c1 , please.
Solution: 625

###

assay: Pharmacokinetics in monkey plasma after oral dosing; type: in vivo; details: Chinese cynomolgus, oral 100 mg/kg, day 15
measurement_kind: Tmax
Record the result as a number with its unit.

Problem: Recorded Tmax of O=C(O)[C@@H](Cc1cccc(CN(Cc2cccc(C[C@H](C(=O)O)[C@H]3CCNC3)c2)Cc2cccc(C[C@H](C(=O)O)[C@H]3CCNC3)c2)c1)[C@H]1CCNC1 , please.
Solution: 1 h

###

assay: Pharmacokinetics in monkey plasma after oral dosing; type: in vivo; conditions: Chinese cynomolgus, oral 10 mg/kg, day 15, read-out: AUC(0-96 hr)
measurement_kind: AUC(0-t) (µM·h)
Return type: number; implicit unit µM·h.

Problem: Recorded AUC(0-t) of O=C(O)[C@@H](Cc1cccc(CN(Cc2cccc(C[C@H](C(=O)O)[C@H]3CCNC3)c2)Cc2cccc(C[C@H](C(=O)O)[C@H]3CCNC3)c2)c1)[C@H]1CCNC1 , please.
Solution: 207

###

Biological target: apo(a) KIV8 (Homo sapiens, UniProt P08519)
Construct: made in house
Sequence (P08519 1387-1465 limits assumed): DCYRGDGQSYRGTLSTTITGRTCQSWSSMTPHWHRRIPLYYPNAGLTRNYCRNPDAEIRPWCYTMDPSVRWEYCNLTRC
Assay: ITC binding to apo(a) KIV8
measurement_kind: Kd (nM)
Return type: number; implicit unit nM.

Problem: Recorded Kd of O=C(O)[C@@H](Cc1cccc(CN(Cc2cccc(C[C@H](C(=O)O)[C@H]3CCNC3)c2)Cc2cccc(C[C@H](C(=O)O)[C@H]3CCNC3)c2)c1)[C@H]1CCNC1 , please.
Solution: 22

###

target: apo(a) KIV7 (Homo sapiens, UniProt P08519); construct: made in house; test: Radioligand binding to apo(a) KIV7; details: direct radioligand binding; read-out: Kd, single KIV7
measurement_kind: pKd
The meaning of pKd here: minus log10 of the concentration in molar units.

Problem: Recorded pKd of O=C(Nc1cccc(C[C@H](C(=O)O)[C@H]2CCNC2)c1)Nc1cccc(C[C@H](C(=O)O)[C@H]2CCNC2)c1 , please.
Solution: 8.55
